# target of assay: Ubiquitin carboxyl-terminal hydrolase 28 (Homo sapiens) (UniProt Q96RU2)
# Sequence (Q96RU2 whole entry, looked up): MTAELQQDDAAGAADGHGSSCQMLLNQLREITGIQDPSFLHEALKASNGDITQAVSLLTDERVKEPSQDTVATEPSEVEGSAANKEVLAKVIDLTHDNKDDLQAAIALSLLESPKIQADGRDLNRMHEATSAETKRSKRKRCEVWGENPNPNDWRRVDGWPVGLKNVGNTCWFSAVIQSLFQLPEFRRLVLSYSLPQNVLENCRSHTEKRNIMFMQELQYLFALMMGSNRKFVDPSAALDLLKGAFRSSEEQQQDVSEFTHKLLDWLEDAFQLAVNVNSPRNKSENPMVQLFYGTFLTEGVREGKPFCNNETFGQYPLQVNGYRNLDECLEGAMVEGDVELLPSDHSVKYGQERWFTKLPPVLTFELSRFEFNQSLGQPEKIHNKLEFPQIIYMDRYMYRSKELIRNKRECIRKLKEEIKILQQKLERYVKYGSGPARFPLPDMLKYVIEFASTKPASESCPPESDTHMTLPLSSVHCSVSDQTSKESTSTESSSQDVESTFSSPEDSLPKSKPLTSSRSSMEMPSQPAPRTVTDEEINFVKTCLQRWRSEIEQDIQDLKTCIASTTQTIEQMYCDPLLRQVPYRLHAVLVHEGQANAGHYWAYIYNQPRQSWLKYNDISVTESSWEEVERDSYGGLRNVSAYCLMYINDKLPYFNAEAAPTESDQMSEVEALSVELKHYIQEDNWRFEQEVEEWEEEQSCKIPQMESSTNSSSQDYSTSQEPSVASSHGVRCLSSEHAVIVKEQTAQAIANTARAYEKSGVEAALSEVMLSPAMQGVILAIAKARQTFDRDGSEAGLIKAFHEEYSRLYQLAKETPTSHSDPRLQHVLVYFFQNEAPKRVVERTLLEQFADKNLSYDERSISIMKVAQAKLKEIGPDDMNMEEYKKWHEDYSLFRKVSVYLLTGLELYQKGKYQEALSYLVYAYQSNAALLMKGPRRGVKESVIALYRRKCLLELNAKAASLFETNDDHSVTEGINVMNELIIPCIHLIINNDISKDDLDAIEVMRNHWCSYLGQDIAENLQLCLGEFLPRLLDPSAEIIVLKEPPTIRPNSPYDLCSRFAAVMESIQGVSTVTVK
# run description: Concentration-response biochemical assay confirming initial hits as inhibitors of ubiquitin-specific protease 28 (AID 1645866)
# measurement context: purified USP28, ubiquitin-rhodamine fluorescence, 30 min
Calls of active or inactive are those of the source.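 The calls were made as follows: active = in confirmatory dose-response testing, peak deubiquitinase inhibition of 30% or more; inactive = the rest.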
Your response should consist of one outcome taken from active, inactive

Here are 3 compounds together with their reported answers.
• Cc1ccccc1N1C(=O)/C(=C\c2cccn2C)c2ccccc2C1=O = inactive
• O=C(NCc1ccc2c(c1)OCO2)c1cc(-c2cc(Cl)ccc2O)n[nH]1 = active
• O=C(CC1C(=O)Nc2nc(-c3ccccc3)nn21)Nc1cccc2ccccc12 (stereo not given) = active

Q: I'd appreciate the recorded outcome for CC1CC(=O)c2c(cc3c(-c4c(O)cc(O)c5c(O)c6c(cc45)OC(C)CC6=O)c(O)cc(O)c3c2O)O1 (stereo not given) from this test.
A: active

Q: Item: CC1CC(=O)Nc2ccccc2N1S(=O)(=O)c1ccc(C#N)cc1 (stereo not given)
A: active
